Biological target: Amine oxidase [flavin-containing] B (Homo sapiens)
Assay: Reversible inhibition of recombinant human MAO-B incubated for 30 mins by dilution assay

{"Structure As Smiles": "O=C1CCc2ccc(OCc3ccccc3F)cc2O1", "Endpoint Unit": "nM", "IC50": 4}

* * *

Reported pIC50 values follow for various molecules
Target: Amine oxidase [flavin-containing] B (Rattus norvegicus, UniProt P19643)
Sequence (P19643 whole entry): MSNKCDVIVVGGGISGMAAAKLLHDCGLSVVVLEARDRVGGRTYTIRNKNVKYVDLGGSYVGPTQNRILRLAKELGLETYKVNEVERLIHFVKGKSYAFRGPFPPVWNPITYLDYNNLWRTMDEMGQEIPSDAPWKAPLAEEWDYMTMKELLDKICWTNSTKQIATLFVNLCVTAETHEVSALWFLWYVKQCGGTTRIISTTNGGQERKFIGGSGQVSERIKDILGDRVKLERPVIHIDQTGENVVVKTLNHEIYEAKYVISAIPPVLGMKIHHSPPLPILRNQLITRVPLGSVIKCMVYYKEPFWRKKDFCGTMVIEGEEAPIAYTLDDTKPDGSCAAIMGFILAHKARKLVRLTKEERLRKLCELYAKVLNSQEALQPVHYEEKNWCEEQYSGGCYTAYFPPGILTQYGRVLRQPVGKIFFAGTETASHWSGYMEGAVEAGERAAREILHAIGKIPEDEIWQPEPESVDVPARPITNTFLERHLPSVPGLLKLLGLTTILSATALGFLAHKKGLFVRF
Assay: Inhibition of rat brain mitochondria MAO-B using benzylamine as substrate incubated for 30 mins by fluorescence microplate reader analysis
pIC50: −log10 of the molar value.
Assay Endpoint: pIC50

{"Structure As Smiles": "CCc1ccc(/C=C/C(=O)c2ccc3c(c2)OCO3)cc1", "Target Desc": "Amine oxidase [flavin-containing] B (Rattus norvegicus, UniProt P19643)", "Value Reported": 6.67}
{"Structure As Smiles": "C/C(=N\\NC(=O)Nc1ncc([N+](=O)[O-])s1)c1ccc(Br)cc1", "Target Desc": "Amine oxidase [flavin-containing] B (Rattus norvegicus, UniProt P19643)", "Value Reported": 6.67}

* * *

Reported pIC50 values follow for various molecules
Biological target: Amine oxidase [flavin-containing] B (Homo sapiens, UniProt P27338)
Assay: Inhibition of recombinant human MAO-B using kynuramine as substrate incubated for 30 mins by fluorimetric analysis
pIC50: −log10 of the molar value.

{"Structure As Smiles": "O=C(CSc1nc2cc(Cl)ccc2s1)N(Cc1cccc([N+](=O)[O-])c1)c1ccc(F)cc1", "Target Desc": "Amine oxidase [flavin-containing] B (Homo sapiens, UniProt P27338)", "pIC50": 5.53}
{"Structure As Smiles": "O=C(/C=C/C=C/c1ccccc1)c1ccco1", "Target Desc": "Amine oxidase [flavin-containing] B (Homo sapiens, UniProt P27338)", "pIC50": 5.53}

* * *

Molecular target: Amine oxidase [flavin-containing] B (Homo sapiens, UniProt P27338)
Sequence (P27338 whole entry): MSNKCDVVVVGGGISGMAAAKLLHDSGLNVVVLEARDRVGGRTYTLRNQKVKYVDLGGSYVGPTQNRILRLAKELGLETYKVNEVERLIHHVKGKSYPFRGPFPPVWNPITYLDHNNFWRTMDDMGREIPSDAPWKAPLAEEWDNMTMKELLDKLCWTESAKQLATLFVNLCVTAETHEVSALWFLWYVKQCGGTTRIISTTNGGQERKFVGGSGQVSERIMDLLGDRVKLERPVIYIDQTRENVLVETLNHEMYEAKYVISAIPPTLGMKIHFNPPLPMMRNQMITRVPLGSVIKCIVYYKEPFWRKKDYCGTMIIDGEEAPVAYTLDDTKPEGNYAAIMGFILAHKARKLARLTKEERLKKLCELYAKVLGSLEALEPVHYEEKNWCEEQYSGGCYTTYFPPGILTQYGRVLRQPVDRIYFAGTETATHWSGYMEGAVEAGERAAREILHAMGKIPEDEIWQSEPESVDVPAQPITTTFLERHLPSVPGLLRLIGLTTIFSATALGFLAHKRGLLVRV
Assay: Inhibition of recombinant human MAO-B expressed in baculovirus infected BTI insect cells using p-tyramine as substrate incubated for 15 mins by Amplex Red reagent and horseradish peroxidase based fluorometric analysis

{"Compound": "Cc1cccc(NC(=S)N2N=C(c3ccc(O)cc3)CC2c2cccs2)c1 (stereo unspecified)", "IC50 / µM": 0.2}
